biological target: HRgpA-6H (Porphyromonas gingivalis) (UniProt P28784); assay: ELISA, Fab FASEBA supernatant on coated HRgpA-6H
Measured Attribute: OD450nm (OD450nm)
A number alone suffices; assume OD450nm.

Example entries begin here.
- parental mouse (KB001) Fab FASEBA, VL variant S95Y (Fab, V domains shown) VH: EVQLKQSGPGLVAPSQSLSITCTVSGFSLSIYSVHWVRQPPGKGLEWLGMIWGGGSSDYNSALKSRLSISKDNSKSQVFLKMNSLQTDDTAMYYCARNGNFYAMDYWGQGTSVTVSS VL: QIVLTQSPAIMSASLGERVTMTCTASSSVSSSFLHWYQQKPGSSPQLWIYSTSNLASGVPARFSGSGSGTSYSLTISSMEAEDAATYYCHQYHHYPYIYTFGGGTKLEIK: 0.827
- parental mouse (KB001) Fab FASEBA, VL variant Y97S (Fab, V domains shown) VH: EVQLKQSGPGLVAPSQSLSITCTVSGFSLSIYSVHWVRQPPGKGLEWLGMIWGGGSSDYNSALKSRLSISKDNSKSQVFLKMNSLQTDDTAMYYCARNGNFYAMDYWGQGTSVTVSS VL: QIVLTQSPAIMSASLGERVTMTCTASSSVSSSFLHWYQQKPGSSPQLWIYSTSNLASGVPARFSGSGSGTSYSLTISSMEAEDAATYYCHQYHHSPSIYTFGGGTKLEIK: 0.633
- parental mouse (KB001) Fab FASEBA, VL variant H93N (Fab, V domains shown) VH: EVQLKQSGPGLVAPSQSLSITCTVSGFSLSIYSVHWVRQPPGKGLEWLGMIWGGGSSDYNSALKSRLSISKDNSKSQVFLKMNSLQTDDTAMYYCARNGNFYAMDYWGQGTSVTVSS VL: QIVLTQSPAIMSASLGERVTMTCTASSSVSSSFLHWYQQKPGSSPQLWIYSTSNLASGVPARFSGSGSGTSYSLTISSMEAEDAATYYCHQYNHSPYIYTFGGGTKLEIK: 0.857
- parental mouse (KB001) Fab FASEBA, VL variant S95H (Fab, V domains shown) VH: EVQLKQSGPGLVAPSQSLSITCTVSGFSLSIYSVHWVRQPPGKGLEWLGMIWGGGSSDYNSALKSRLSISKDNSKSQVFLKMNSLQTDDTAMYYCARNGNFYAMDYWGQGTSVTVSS VL: QIVLTQSPAIMSASLGERVTMTCTASSSVSSSFLHWYQQKPGSSPQLWIYSTSNLASGVPARFSGSGSGTSYSLTISSMEAEDAATYYCHQYHHHPYIYTFGGGTKLEIK: 0.8

We next turn to a different binder, shown below.
Query parental mouse (KB001) Fab FASEBA, VL variant L55H (Fab, V domains shown) VH: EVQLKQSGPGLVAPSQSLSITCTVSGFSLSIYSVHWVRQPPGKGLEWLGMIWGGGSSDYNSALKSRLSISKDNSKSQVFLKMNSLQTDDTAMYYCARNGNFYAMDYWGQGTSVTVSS VL: QIVLTQSPAIMSASLGERVTMTCTASSSVSSSFLHWYQQKPGSSPQLWIYSTSNHASGVPARFSGSGSGTSYSLTISSMEAEDAATYYCHQYHHSPYIYTFGGGTKLEIK yields OD450nm of 0.64
